TESTED_ON: T1, V domain of human CD33 (human, UniProt P20138 18-139, limits assumed)
T1 construct: recombinant, fully glycosylated V domain; also called Human CD33 V domain
TEST_NAME: SPR, Fab captured, 37C;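 also: Anti-CD33 Fabs captured on anti-Fab chip, soluble monomeric CD33 or its domains flowed over at several concentrations, double-referenced data fitted 1:1, Kd taken as koff/kon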
ENDPOINT: Kd (nM)
Write down the numeric answer in nM and omit the unit.

Sample answers from the record:
ADI-11809 Fab (Fab, V domains shown, Fab fragment; also called Ab6) VH: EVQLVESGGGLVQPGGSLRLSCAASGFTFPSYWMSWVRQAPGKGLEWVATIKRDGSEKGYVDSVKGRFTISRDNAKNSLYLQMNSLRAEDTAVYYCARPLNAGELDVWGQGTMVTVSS VL: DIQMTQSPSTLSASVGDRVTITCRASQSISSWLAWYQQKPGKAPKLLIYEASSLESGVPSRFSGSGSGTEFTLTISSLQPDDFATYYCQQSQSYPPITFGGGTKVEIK
0.3
ADI-10159 Fab (Fab, V domains shown, Fab fragment; also called Ab1; G59) VH: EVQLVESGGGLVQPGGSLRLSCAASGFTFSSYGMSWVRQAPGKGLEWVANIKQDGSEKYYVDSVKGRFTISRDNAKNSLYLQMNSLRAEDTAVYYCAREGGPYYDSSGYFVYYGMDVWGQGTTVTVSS VL: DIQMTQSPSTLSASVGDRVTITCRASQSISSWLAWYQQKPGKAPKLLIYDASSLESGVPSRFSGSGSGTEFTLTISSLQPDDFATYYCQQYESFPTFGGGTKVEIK
5.56
ADI-11839 Fab (Fab, V domains shown, Fab fragment; also called Ab28) VH: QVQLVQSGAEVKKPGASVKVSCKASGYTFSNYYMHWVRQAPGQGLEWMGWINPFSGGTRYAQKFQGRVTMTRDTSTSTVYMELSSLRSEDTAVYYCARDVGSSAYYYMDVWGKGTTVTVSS VL: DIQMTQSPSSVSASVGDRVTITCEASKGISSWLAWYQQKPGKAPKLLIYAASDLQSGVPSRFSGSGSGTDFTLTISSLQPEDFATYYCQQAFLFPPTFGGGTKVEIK
44.6

Sample ADI-10164 Fab (Fab, V domains shown, Fab fragment; also called Ab18) VH: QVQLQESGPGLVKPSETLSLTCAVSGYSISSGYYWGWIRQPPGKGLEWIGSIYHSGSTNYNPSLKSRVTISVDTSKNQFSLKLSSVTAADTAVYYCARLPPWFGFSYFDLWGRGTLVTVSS VL: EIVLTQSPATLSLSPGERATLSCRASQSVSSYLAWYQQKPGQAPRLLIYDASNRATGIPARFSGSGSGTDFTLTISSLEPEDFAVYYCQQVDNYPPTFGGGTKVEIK — what was its Kd?
286

Then this binder: ADI-11819 Fab (Fab, V domains shown, Fab fragment; also called Ab8) VH: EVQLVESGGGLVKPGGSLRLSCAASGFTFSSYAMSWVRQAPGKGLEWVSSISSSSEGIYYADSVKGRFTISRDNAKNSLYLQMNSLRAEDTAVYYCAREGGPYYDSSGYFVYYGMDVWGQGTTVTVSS VL: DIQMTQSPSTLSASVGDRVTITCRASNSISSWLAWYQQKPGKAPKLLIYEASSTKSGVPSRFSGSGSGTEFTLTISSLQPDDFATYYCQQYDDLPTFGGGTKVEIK
0.14

Let us now turn to ADI-10161 Fab (Fab, V domains shown, Fab fragment; also called Ab16) VH: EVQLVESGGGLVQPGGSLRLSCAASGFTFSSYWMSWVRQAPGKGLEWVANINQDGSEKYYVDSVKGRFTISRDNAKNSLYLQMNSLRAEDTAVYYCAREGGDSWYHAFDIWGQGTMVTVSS VL: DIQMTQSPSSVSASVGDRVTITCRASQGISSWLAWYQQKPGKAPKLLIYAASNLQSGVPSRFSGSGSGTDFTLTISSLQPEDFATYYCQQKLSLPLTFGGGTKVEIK
95.8
